Origin of the recorded values: ChEMBL document CHEMBL5137039

Please go through the items and note down their Activity.
target: P2X purinoceptor 7 (Homo sapiens) (UniProt Q99572); assay: Antagonist activity against human P2X7R stably transfected in human 1321N1 cells at 50 uM incubated for 30 mins by Fura-2 AM staining based calcium influx assay relative to control; assay type: cell-based; set-up: scale not given: the % may be the effect or the level left
Sequence (Q99572 whole entry): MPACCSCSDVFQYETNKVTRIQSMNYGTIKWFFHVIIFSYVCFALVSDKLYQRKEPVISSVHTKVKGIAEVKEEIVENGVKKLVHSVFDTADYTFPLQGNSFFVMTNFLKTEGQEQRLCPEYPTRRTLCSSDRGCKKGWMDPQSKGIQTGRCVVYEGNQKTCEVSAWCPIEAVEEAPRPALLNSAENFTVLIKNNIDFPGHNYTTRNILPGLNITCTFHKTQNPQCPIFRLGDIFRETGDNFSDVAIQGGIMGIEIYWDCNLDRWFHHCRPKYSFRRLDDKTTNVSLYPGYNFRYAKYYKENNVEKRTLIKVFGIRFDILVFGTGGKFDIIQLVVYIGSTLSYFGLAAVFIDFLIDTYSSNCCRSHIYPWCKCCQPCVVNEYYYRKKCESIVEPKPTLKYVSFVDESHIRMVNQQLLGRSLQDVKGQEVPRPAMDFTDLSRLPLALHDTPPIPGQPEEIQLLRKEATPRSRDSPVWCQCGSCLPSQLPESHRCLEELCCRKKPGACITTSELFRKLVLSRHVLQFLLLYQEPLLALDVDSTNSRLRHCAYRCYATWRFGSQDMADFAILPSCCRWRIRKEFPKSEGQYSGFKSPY
Answer with the number, then the unit.

input: Name the recorded Activity for COc1cccc(NC(=S)NC(=O)c2ccc3c(c2)OCO3)c1 .
output: 33%

input: Now consider O=C(NC(=S)Nc1ccc(Br)cc1)c1ccc2c(c1)OCO2 .
output: 22%

input: Now consider COc1ccccc1NC(=S)NC(=O)c1ccc2c(c1)OCO2 .
output: 38%

input: Now consider Cc1cc(Br)ccc1NC(=S)NC(=O)c1ccc2c(c1)OCO2 .
output: 34%

input: Now consider COc1ccc(NC(=S)NC(=O)c2ccc3c(c2)OCO3)cc1 .
output: 36%
